System: Plasmodium berghei
test: Screen against P. berghei liver stage (PbLuc), transformed with Luciferase, at 2uM
Format: functional, HepG2
condition: tested at 2 uM
Out of some 68,000 compounds screened, about 2,700 (4%) showed an effect of 50% or more. The list comes from a sample in which strong results are over-represented; it also holds close analogues and randomly drawn compounds.
Cut-off 30% on INHIBITION, inclusive. At or above means condition met; below means condition not met.

Sample answers from the record:
{"compound": "Cc1cccc(N2CC(c3nnc(N)s3)CC2=O)c1 (stereo not given)", "cat": "condition met"}
{"compound": "COc1ccc(C)cc1CC(=O)Nc1cc(C)n[nH]1", "cat": "condition not met"}
{"compound": "COc1cc(NCCNC(=O)c2cc[nH]c2C)cc(OC)c1", "cat": "condition not met"}
{"compound": "COc1cc(NCCNC(=O)c2ccc3[nH]ccc3c2)cc(OC)c1", "cat": "condition met"}

In plain terms: is recorded INHIBITION at least 30% for CCN1CCC(Cn2ccc3ccc(C(=O)OC)cc3c2=O)C1 (stereo not given) ?
condition met

Please give the result for Cc1cc(C)c2nc(CN3CCC(CN)CC3)cc(O)c2c1 too.
condition met

Entry to check: O=C(NCc1cc(N2CCOCC2)ncn1)c1cccc(CO)n1
condition not met

Try the compound Cc1cc(C)cc(N2CC(c3nnc(N)s3)CC2=O)c1 (stereo not given)
condition met

Another compound to check: Cc1cc(C)n(C2CCCN(C(=O)c3cc(C(N)=O)cs3)C2)n1 (stereo not given)
condition not met

Ok, now O=C1C[C@@H]2CCN(Cc3ccccc3)C[C@@H]2CCN1c1ccccc1
condition met

What do you get for Cn1c(C2CC2)nc2c1CCN(CCOc1cccc(F)c1)C2 ?
condition not met

Next record, please: Cc1c(Cl)cccc1N1CC(c2nnc(N)s2)CC1=O (stereo not given)
condition not met

Ok, now OC1(CN2CCC(Cc3ncccn3)CC2)CCCCC1
condition not met

Continue with CCC(CNC(=O)Cc1c(C)noc1C)N1CCCC1 (stereo not given)
condition not met

Same thing, different compound: Cc1cccc(N2CC3(CCN(c4nncs4)C3)CC2=O)c1 (stereo not given)
condition not met

Now consider O=C(c1ccc[nH]1)N1CCc2onc(COc3cccnc3)c2C1 .
condition not met

Here is the next compound: O=C(N1CCCC1)N1CCc2onc(COc3cccnc3)c2C1
condition not met

Moving on to the next compound: Cc1cnn(CCNCc2nc(-c3ccccc3Cl)no2)c1
condition met

And the next one, O=C(C1CC(=O)N(c2ccccc2)C1)N1CCC2(CC1)OCCO2 (stereo not given) ?
condition not met

Same question for Cc1cnn(CCNCc2c(C)nn(C)c2Cl)c1 please.
condition met

Repeat with CN(C)[C@@H]1C[C@@H](CO)N(C(=O)Nc2cccc(F)c2F)C1
condition not met

Here is the next compound: Cc1ccc(NC2CCN(C(=O)Cc3c(C)noc3C)CC2)nn1
condition not met

Another compound: CCc1ccccc1N1CC(c2nnc(N)s2)CC1=O (stereo not given)
condition met

Then Cn1c(C2CC2)nc2c1CCN(CCOc1ccccc1C#N)C2 ?
condition not met

What about CN(C)Cc1nn(C)c2c1CCN(C(=O)c1cccnc1)C2 ?
condition met

---

Tested on: Plasmodium berghei
test: Screen against P. berghei liver stage (PbLuc), transformed with Luciferase, at 2uM
Format: functional, HepG2
condition: tested at 2 uM
In all, about 68,000 compounds went through this assay and about 2,700 (4%) showed an effect of 50% or more. What follows is part of a selection rich in strong results, with near analogues and random picks from the rest.
reported.endpoint: INHIBITION (%)
Reply numerically in %, unit not repeated.

{"compound": "CCN1CCC2(CCC1=O)CN(c1cnc3ccccc3n1)CCN2C (centres undefined)", "study.system": "Plasmodium berghei", "reported.endpoint": "INHIBITION", "number": -40.52}
{"compound": "COc1cc(COCC2CCN(Cc3ccccn3)CC2)cc(OC)c1", "study.system": "Plasmodium berghei", "reported.endpoint": "INHIBITION", "number": 5.98}
{"compound": "CCc1cnc(N2C[C@@H]3C[C@H](C(=O)NC)[C@H](C2)O3)nc1", "study.system": "Plasmodium berghei", "reported.endpoint": "INHIBITION", "number": 18.91}
{"compound": "Cc1cccc(NCCNc2ccc(C#N)cn2)n1", "study.system": "Plasmodium berghei", "reported.endpoint": "INHIBITION", "number": 60.79}
{"compound": "Cc1ccccc1NC(=O)NCCn1nc(C(F)(F)F)n(C)c1=O", "study.system": "Plasmodium berghei", "reported.endpoint": "INHIBITION", "number": 16.54}

Proceed to the following item.
// INHIBITION lookup, key: Cc1ccc(N2CCN(C3CCc4ccccc4C3)CC2)nn1 (centres undefined)
30.66

---

Listed here are compounds together with their documented INHIBITION.
Tested on: Plasmodium berghei
test: Screen against P. berghei liver stage (PbLuc), transformed with Luciferase, at 2uM
Type: functional, HepG2
condition: tested at 2 uM
Screen size: about 68,000 compounds; about 2,700 (4%) showed an effect of 50% or more. The sample holds strong results, similar compounds and a random draw of the others, so the mix is not that of the screen.
Return type: number; implicit unit %.

{"compound": "CC(O)CNC(=O)c1nc(Cc2c(Cl)cccc2Cl)no1 (stereo unspecified)", "reported.endpoint": "INHIBITION", "unit": "%", "number": 20.71}

Suppose we examine the compound O=C(O)c1ccccc1-n1cnc(CN2CCCCCC2)c1 ; what INHIBITION value has been reported?
25.41

Can you handle O=C(O)c1ccccc1-n1cnc(CN2CCc3ccccc3C2)c1 next?
51.03

Please give the result for CN(CC(=O)NCC(F)(F)F)C(=O)c1ccc(C(=O)OC(C)(C)C)cc1 too.
-16.4

---

Tested on: Plasmodium berghei
test: Screen against P. berghei liver stage (PbLuc), transformed with Luciferase, at 2uM
Type: functional, HepG2
condition: tested at 2 uM
In all, about 68,000 compounds went through this assay and about 2,700 (4%) showed an effect of 50% or more. The entries come from a sample that favours strong results as a whole.
reported.endpoint: INHIBITION

Below, 6 compounds whose answers are already recorded.
{"compound": "CNc1nc(C2CCCN(C(=O)C(C)(C)OC)C2)nc2c1CN(C)CC2 (configuration not stated)", "INHIBITION": "-11.02%"}
{"compound": "CNC(=O)Cc1ccc(NC(=O)NCc2nc(C)sc2C)cc1", "INHIBITION": "45.82%"}
{"compound": "CC(C)COCC1CN(Cc2ccoc2)Cc2ncn(C)c21 (configuration not stated)", "INHIBITION": "-13.32%"}
{"compound": "COc1ccc(-c2ccc(C(=O)O)c(F)c2)c(F)c1", "INHIBITION": "17.01%"}
{"compound": "Cc1ccc(C(=O)N2CC[C@@]3(O)CCCC[C@H]3C2)cc1", "INHIBITION": "16.45%"}
{"compound": "Clc1ccccc1C1(c2ccnc(C3CCCC3)n2)CCNCC1", "INHIBITION": "11.94%"}

State the recorded INHIBITION for this entry: CN1CCC2(COCc3cnc(N4CCOCC4)nc32)C1 (configuration not stated)
18.97%

Cc1cc(C(=O)N(CC(C)C)CC(O)c2ccc(F)cc2)[nH]n1 (configuration not stated) ?
51.96%

Now this one: CCc1ncc2c(n1)CN(Cc1nnc(C)o1)CC2
59.18%

// next record COc1ccc(-c2ccc(C(=O)NCCCC(N)=O)c(F)c2)c(F)c1
53.81%

# iterate: CCN1c2ccc(-c3cncn3CC(=O)NC(C)(C)C)cc2CC1C (configuration not stated)
51.57%

Try the compound O=C(NC1CC1)[C@H]1C[C@H]2OCC[C@H]2N(Cc2ccc3ccccc3n2)C1
0.91%

---

Test system: Plasmodium berghei
test: Screen against P. berghei liver stage (PbLuc), transformed with Luciferase, at 2uM
Format: functional, HepG2
condition: tested at 2 uM
Among all 68,000 compounds or so, about 2,700 (4%) showed an effect of 50% or more. This is one part of a sample in which strong results are shown more often than they occur.
reported.endpoint: INHIBITION (%)
Number only, in %; omit the unit.

Solved entries:
{"molecule": "Cc1ccccc1CN1CCCC1c1cccc(Nc2nccs2)n1 (centres undefined)", "study.system": "Plasmodium berghei", "INHIBITION, %": 15.61}
{"molecule": "Cc1nn2cc(CCNC(=O)c3cc(C(C)C)nn3C)nc2s1", "study.system": "Plasmodium berghei", "INHIBITION, %": -8.8}
{"molecule": "COc1ccc(Br)cc1NCC(=O)NC(C)(C#N)C1CC1 (centres undefined)", "study.system": "Plasmodium berghei", "INHIBITION, %": -0.46}
{"molecule": "c1ccc(CCN2CCCC2c2cccc(Nc3nccs3)n2)cc1 (centres undefined)", "study.system": "Plasmodium berghei", "INHIBITION, %": 30.29}
{"molecule": "O=C(NCC(F)(F)F)C1CCCN(Cc2ccno2)C1 (centres undefined)", "study.system": "Plasmodium berghei", "INHIBITION, %": 20.32}
{"molecule": "Cc1cc(CNC(=O)CC2CN(C(=O)OC(C)(C)C)C2)ccc1F", "study.system": "Plasmodium berghei", "INHIBITION, %": 21.97}
{"molecule": "COc1ccc(OC)c(C2CCN(C(=O)C3CCS(=O)(=O)CC3)C2)c1 (centres undefined)", "study.system": "Plasmodium berghei", "INHIBITION, %": -18.57}
{"molecule": "CC1CCc2nn(CCNC(=O)c3cccs3)c(=O)cc2C1 (centres undefined)", "study.system": "Plasmodium berghei", "INHIBITION, %": 28.82}

So what's the measured INHIBITION for this one? COc1ccc(OC)c(C2CCN(C(=O)C3CCOCC3)C2)c1 (centres undefined)
48.21

And what about the molecule CCN(CC)S(=O)(=O)N1CCCC1c1cccc(Nc2ncc(C)s2)n1 (centres undefined) ?
56.16

Input O=C(CN1CCc2cncnc2C1)NCCOc1ccccc1
10.62

Would you mind doing CCS(=O)(=O)CC(=O)NC(C)c1ccccc1Oc1ccccc1 (centres undefined) as well?
-28.15

Same again, this time with OCCN(Cc1nc(-c2ccc3c(c2)OCO3)no1)Cc1cccs1
-49.59
